# assayMethodText: HepG2 cell viability effects, profiling panel, calcein-AM fluorescence, 48 h, basal (AID 1164); also: test concentration not given here
# cond: higher = more signal

compound: CO[C@@H]1COC(=O)[C@@H](C)NC(=O)CC=C[C@@H](C)[C@H](NS(=O)(=O)c2ccc(C)cc2)COC(=O)[C@H](C)NC(=O)CC=C[C@H]1C
z-score: 0.196
--
compound: O=C1[C@H]2[C@H]3[C@H](O)[C@H](O)CC(=NOCc4ccccc4)[C@H]3CC[C@H]2C(=O)N1Cc1ccc2c(c1)OCO2
z-score: -1.25
--
compound: COc1cc(O)c(C(=O)C=Cc2ccc3c(c2)OCO3)c(OC)c1
z-score: -0.932
--
compound: CC(CCN1CCc2nc(-c3ccccc3)c(-c3ccccc3)cc2C1)=NOC[C@@H](O)COCc1ccco1
z-score: 2.01
--
compound: O=C1C2=CC[C@H]3C(=O)N(c4cccc(Oc5ccccc5)c4)C(=O)[C@H]3[C@H]2[C@H](O)[C@@H]2O[C@H]12
z-score: -3.98
--
compound: CC(C)=CCCC(C)=CCON=C1C[C@@H](O)[C@@H](O)[C@@H]2[C@@H]3C(=O)N(Cc4ccccc4)C(=O)[C@@H]3CC[C@@H]12
z-score: -1.45
--
compound: C[C@H]1CC[C@H]2C(=O)OC(CO)CN2[C@@H]1c1ccc(Br)cc1 (stereo partly drawn)
z-score: -0.592
--
compound: COC(=O)[C@H](C)NC(=O)CCC1CC(OC(=O)NCc2ccc3c(c2)OCO3)CC2(CCCC(COC(=O)NCC3CCCCC3)O2)O1 (stereo partly drawn)
z-score: -0.653
